Documented log10(IC50) across a set of molecules
System: KRas-mediated Phosphorylation of ERK in A549 cells
PROTOCOL_NOTES: Cisbio HTRF pERK assay, A549 cells
Assay type: cell-based
CONDITION_DETAILS: Homo sapiens, A549, 3 h, A549 cells, 3 hrs compound; read-out: Inhibition (HTRF IC50 nM) of KRas-mediated Phosphorylation of ERK, A549
QUANTITY_MEASURED: log10(IC50) (log10 of the value in nM)

MOLECULE | ASSAYED_TARGET | log10(IC50)
CCc1c(F)ccc2cc(O)cc(-c3c(F)cc4c(N5CC(c6ccncc6)C5)nc(OC[C@@]56CCCN5C[C@H](F)C6)nc4c3F)c12 [Example 175] | KRas-mediated Phosphorylation of ERK in A549 cells | 2.69
N#Cc1c(N)sc2c(F)ccc(-c3c(Cl)cc4c(N5CCCCC(F)C5)nc(OC[C@@]56CCCN5C[C@H](F)C6)nc4c3F)c12 (stereo partly drawn) [Example 204] | KRas-mediated Phosphorylation of ERK in A549 cells | 1.53
N#Cc1c(N)sc2c(F)ccc(-c3c(Cl)cc4c(NCC5CS(=O)(=O)C5)nc(OC[C@@]56CCCN5C[C@H](F)C6)nc4c3F)c12 [Example 222] | KRas-mediated Phosphorylation of ERK in A549 cells | 3.21
N#Cc1c(N)sc2c(F)ccc(-c3c(Cl)cc4c(N5CCC5CO)nc(OC[C@@]56CCCN5C[C@H](F)C6)nc4c3F)c12 (stereo partly drawn) [Example 209] | KRas-mediated Phosphorylation of ERK in A549 cells | 1.83
CN(C)C(=O)c1cc2n(n1)CCCN(c1nc(OC[C@@]34CCCN3C[C@H](F)C4)nc3c(F)c(-c4ccc(F)c5sc(N)c(C#N)c45)c(C4CC4)cc13)C2 [Example 207] | KRas-mediated Phosphorylation of ERK in A549 cells | 1.34
